Values were extracted from patent US7524867B2.

Molecular target: human cannabinoid CB1 receptor (Homo sapiens, UniProt P21554)
Construct: expressed in transfected cells; host or cells: Chinese hamster ovary (CHO) cells, stably transfected; membrane preparation
Sequence (P21554 whole entry): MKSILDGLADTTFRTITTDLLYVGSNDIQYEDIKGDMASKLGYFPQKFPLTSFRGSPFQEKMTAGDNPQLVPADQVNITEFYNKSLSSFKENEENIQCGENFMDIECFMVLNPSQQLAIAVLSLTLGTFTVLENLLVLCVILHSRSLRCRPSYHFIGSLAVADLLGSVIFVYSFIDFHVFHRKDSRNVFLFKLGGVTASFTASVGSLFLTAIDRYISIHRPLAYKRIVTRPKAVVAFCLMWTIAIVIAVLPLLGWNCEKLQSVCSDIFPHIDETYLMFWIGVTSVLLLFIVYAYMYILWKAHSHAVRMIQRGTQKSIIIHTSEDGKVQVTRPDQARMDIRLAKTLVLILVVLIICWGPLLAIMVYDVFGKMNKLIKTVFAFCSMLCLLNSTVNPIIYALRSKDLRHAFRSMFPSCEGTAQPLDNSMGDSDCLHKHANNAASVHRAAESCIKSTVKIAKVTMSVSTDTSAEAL
Experiment: In vitro affinity for cannabinoid-CB1 receptors ([3H]CP-55,940 radioligand binding, CHO cell membranes)
Settings: CB1/CB2 receptor subtype selectivity (affinity ratio; numerically CB2 nM value divided by CB1 nM value)
assay_metric: CB1/CB2 ratio
Numbers only.

compound: CS(=O)(=O)c1c(C(=O)NN2CCCCC2)nc(-c2ccc(Cl)cc2Cl)n1-c1ccc(Cl)cc1
system_tested: human cannabinoid CB1 receptor (Homo sapiens, UniProt P21554)
CB1/CB2 ratio: 638

// below: CB1/CB2 ratio requested for another compound
Memo: `CSc1c(C(=O)NN2CCCCC2)nc(-c2ccc(Cl)cc2Cl)n1-c1ccc(Cl)cc1` , reported CB1/CB2 ratio: 171

###

Biological target: human cannabinoid CB2 receptor (Homo sapiens)
Sequence (P34972 whole entry): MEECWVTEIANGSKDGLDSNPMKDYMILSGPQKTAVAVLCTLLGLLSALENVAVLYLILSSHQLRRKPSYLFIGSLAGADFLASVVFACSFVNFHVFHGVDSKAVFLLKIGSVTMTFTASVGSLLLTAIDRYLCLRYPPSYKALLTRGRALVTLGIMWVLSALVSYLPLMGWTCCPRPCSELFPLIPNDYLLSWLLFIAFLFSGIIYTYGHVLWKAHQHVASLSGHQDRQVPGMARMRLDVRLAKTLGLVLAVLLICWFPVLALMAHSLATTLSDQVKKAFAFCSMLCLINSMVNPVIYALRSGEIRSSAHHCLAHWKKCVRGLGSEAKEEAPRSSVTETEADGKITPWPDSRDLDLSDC
assay_metric: pKi
Answers are plain numbers, as −log10 of the molar value.

Reported pKi (human cannabinoid CB2 receptor (Homo sapiens)) for entry `CS(=O)(=O)c1c(C(=O)NN2CCCCC2)nc(-c2ccc(Cl)cc2Cl)n1-c1ccc(Cl)cc1` is 5.12

###

Target: human cannabinoid CB1 receptor (Homo sapiens)
Construct: expressed in transfected cells; host or cells: Chinese hamster ovary (CHO) cells, stably transfected; membrane preparation
Test: In vitro affinity for cannabinoid-CB1 receptors ([3H]CP-55,940 radioligand binding, CHO cell membranes)
Details: receptor affinity; membranes of CHO cells stably transfected with human CB1; [3H]CP-55,940; mean of at least three independent experiments; read-out: CB1
assay_metric: pKi
One number for each entry, as −log10 of the molar value.

# pKi (molecule: CSc1c(C(=O)NN2CCCCCC2)nc(-c2ccc(Cl)cc2Cl)n1-c1ccc(Cl)cc1 [compound 10] ) is 8.15

###

Biological target: human cannabinoid CB1 receptor (Homo sapiens, UniProt P21554)
Construct: expressed in transfected cells; host or cells: Chinese hamster ovary (CHO) cells, stably transfected; membrane preparation
Assay: In vitro affinity for cannabinoid-CB1 receptors ([3H]CP-55,940 radioligand binding, CHO cell membranes)
Can you tell me Ki for the items I'm about to list?
Numbers only, in nM.

compound: CSc1c(C(=O)NN2CCCC2)nc(-c2ccc(Cl)cc2Cl)n1-c1ccc(Cl)cc1 [compound 9]
system_tested: human cannabinoid CB1 receptor (Homo sapiens, UniProt P21554)
assay_metric: Ki
result_value: 5

# ---- query compound ----
Form field Ki, entry CS(=O)(=O)c1c(C(=O)NN2CCCCC2)nc(-c2ccc(Cl)cc2Cl)n1-c1ccc(Cl)cc1 [compound 1] : 12
